These measurements were taken from PubChem BioAssay (NCI).

experiment: NCI Yeast Anticancer Drug Screen. Data for the cln2 rad14 strain (AID 165);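 note: 0% = growth equal to vehicle treated cultures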; conditions: S. cerevisiae cln2 rad14 strain, at 50.0 µM (retest, dose inferred, filed as 5.0), hits give high values
Compounds without any hit were thinned out: in the full panel of roughly 79,000, 15% have a hit.

| COMPOUND | growth inhibition (%) |
| --- | --- |
| COc1cc2c(cc1OC)[C@H]1C(=O)c3cc4c(cc3[C@H]1N(C)C2=O)OCO4 | -1 |
| Cc1ccc2c(c1)C(O)(c1ccccc1)CCS2 (stereo not given) | 96 |
| O=C(Nc1ccccc1C(=O)NC(=O)c1ccccc1NC(=O)c1ccccc1)c1ccccc1 | 99 |
| COc1ccc(/C=C2\Sc3scc(-c4ccc([N+](=O)[O-])cc4)[n+]3C2=O)cc1OC | -4 |
| Oc1c(Cl)cc(Cl)cc1C=NCCSc1ccc(Cl)cc1 | 99 |
